The values you see were collected from ChEMBL document CHEMBL5252510.

target: Proto-oncogene tyrosine-protein kinase receptor Ret (Homo sapiens, UniProt P07949); assay: Inhibition of RET (unknown origin) autophosphorylation expressed in mouse NIH3T3 cells by ELISA-based assay
Sequence (P07949 whole entry): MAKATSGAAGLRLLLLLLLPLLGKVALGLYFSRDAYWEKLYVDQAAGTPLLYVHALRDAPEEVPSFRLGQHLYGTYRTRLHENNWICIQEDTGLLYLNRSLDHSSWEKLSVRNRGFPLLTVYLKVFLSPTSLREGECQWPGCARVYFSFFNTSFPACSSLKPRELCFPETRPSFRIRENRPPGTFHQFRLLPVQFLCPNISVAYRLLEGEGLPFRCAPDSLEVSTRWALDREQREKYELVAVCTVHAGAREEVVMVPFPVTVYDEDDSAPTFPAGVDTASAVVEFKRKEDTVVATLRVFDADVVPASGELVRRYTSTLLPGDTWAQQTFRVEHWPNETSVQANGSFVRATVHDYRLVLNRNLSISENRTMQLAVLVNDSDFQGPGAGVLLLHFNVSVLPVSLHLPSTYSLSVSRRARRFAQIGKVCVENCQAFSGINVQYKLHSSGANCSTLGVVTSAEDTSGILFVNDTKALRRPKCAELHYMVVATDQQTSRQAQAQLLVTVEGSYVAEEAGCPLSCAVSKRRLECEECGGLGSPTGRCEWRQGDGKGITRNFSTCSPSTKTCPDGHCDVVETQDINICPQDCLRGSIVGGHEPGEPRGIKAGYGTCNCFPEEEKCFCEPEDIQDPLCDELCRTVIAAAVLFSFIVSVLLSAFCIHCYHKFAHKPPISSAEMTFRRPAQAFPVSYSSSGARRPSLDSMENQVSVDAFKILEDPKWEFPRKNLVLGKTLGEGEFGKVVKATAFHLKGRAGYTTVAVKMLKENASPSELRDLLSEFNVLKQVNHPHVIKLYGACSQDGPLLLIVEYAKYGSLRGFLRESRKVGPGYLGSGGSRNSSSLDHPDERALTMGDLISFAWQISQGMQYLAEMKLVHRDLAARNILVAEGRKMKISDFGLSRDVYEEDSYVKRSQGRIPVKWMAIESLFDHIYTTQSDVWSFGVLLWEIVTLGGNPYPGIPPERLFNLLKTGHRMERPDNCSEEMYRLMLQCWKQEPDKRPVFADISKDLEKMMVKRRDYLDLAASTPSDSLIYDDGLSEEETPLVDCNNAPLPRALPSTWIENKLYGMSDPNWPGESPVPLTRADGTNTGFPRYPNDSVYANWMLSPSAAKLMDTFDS
Please respond with reported IC50 for every item in the list.
# output: bare number, implied unit nM

Requested read-out IC50, target or system Proto-oncogene tyrosine-protein kinase receptor Ret (Homo sapiens, UniProt P07949), entry Nc1nccc(Oc2ccc3c(C(=O)Nc4cccc(C(F)(F)F)c4)cccc3c2)n1
30

Lab request: please report IC50 under test system Proto-oncogene tyrosine-protein kinase receptor Ret (Homo sapiens, UniProt P07949) for O=C(Nc1cccc(C(F)(F)F)c1)c1cccc2cc(Oc3cc(CO)ncn3)ccc12 [BFH-772]
30
